target: Inhibitor of nuclear factor kappa-B kinase subunit beta (Mus musculus) (UniProt O88351); assay: Inhibition of IKKbeta in C57BL/6 mouse BMDM cells assessed as inhibition of LPS-induced IkappaBalpha phosphorylation at 50 uM up to 90 mins by Western blot analysis; format: cell-based
Sequence (O88351 whole entry): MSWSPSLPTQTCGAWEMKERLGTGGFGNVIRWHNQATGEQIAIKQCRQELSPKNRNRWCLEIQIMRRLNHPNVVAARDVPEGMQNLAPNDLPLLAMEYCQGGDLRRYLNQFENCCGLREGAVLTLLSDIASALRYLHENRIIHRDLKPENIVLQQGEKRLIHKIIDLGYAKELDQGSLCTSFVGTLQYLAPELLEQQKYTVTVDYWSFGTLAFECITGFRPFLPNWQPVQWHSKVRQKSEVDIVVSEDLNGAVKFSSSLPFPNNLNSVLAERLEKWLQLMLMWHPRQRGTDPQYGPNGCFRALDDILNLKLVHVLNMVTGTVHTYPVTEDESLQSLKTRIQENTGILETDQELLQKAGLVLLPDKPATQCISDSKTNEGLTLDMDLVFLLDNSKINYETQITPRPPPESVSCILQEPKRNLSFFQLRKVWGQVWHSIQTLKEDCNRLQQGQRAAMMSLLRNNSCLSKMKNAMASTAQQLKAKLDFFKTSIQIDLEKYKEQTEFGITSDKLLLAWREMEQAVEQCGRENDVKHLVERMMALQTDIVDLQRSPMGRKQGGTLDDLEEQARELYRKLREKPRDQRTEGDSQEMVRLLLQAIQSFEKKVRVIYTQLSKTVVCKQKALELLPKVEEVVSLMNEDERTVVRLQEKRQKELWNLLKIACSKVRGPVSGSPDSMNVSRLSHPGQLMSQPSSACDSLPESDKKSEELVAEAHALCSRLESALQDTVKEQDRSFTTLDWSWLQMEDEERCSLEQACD
Activity calls are given as the source filed them. The calls are words filed in the database; no cut-off is given here.
The reply should name one outcome from T (active), F (inactive)

COc1ccc(-c2ccc(C(C(=O)NC(C)(C)C)N(C(=O)CCc3ccc(O)c(O)c3)C(C)(C)C)cc2)cc1 (stereo not given) : F
O=C(CCCCCN1C(=O)C=CC1=O)Oc1ccc2cc(C(C(=O)NCc3ccccc3)N(C(=O)Cc3ccc4c(c3)OCO4)C3CC3)ccc2c1 (stereo not given) : T

What was the test verdict on COc1ccc(C(=O)N(Cc2ccccn2)C(C(=O)NC(C)(C)C)c2ccc(-c3ccc(OC)cc3)cc2)cc1 (stereo not given) ?
F

Consider next the compound O=C(CCCCCCCC(=O)ON1C(=O)CCC1=O)Oc1ccc2cc(C(C(=O)NCc3ccccc3)N(C(=O)Cc3ccc4c(c3)OCO4)C3CC3)ccc2c1 (stereo not given) in the same way.
T

Consider next the compound O=C(CCCCCN1C(=O)CCC1=O)Oc1ccc2cc(C(C(=O)NCc3ccccc3)N(C(=O)Cc3ccc4c(c3)OCO4)C3CC3)ccc2c1 (stereo not given) in the same way.
F

---

target: Inhibitor of nuclear factor kappa-B kinase subunit beta (Mus musculus) (UniProt O88351); test: Inhibition of IKKbeta in C57BL/6 mouse BMDM cells assessed as inhibition of LPS-induced IkappaBalpha degradation at 50 uM up to 90 mins by Western blot analysis; type: cell-based
The source made the active and inactive calls. No cut-off for these calls is given here.
The reply should name one outcome from TRUE (active), FALSE (inactive)

Below are worked cases with known answers.
COc1ccc(-c2ccc(C(C(=O)NC(C)(C)C)N(C(=O)CCc3ccc(O)c(O)c3)C(C)(C)C)cc2)cc1 (stereo not given) : FALSE
O=C(CCCCCN1C(=O)CCC1=O)Oc1ccc2cc(C(C(=O)NCc3ccccc3)N(C(=O)Cc3ccc4c(c3)OCO4)C3CC3)ccc2c1 (stereo not given) : FALSE
COc1ccc(C(=O)N(Cc2ccccn2)C(C(=O)NC(C)(C)C)c2ccc(-c3ccc(OC)cc3)cc2)cc1 (stereo not given) : FALSE
O=C(CCCCCCCC(=O)ON1C(=O)CCC1=O)Oc1ccc2cc(C(C(=O)NCc3ccccc3)N(C(=O)Cc3ccc4c(c3)OCO4)C3CC3)ccc2c1 (stereo not given) : TRUE

Then there is this compound:
What was the test verdict on O=C(CCCCCN1C(=O)C=CC1=O)Oc1ccc2cc(C(C(=O)NCc3ccccc3)N(C(=O)Cc3ccc4c(c3)OCO4)C3CC3)ccc2c1 (stereo not given) ?
TRUE

Cited source for all entries: ChEMBL document CHEMBL2203171
